I'd appreciate it if you could supply IC50 values for the items below.
- System: 677734-321-R-J1-PDC complex spheroid viability
- method: Anticancer human tumor 677734-321-R-J1-PDC patient-derived soft tissue sarcoma cell line growth inhibition [POLQ]
- condition_label: curve of first compound; second compound 1 µM
Unit nM implied. Number only.

Task item: Name the reported IC50 value associated with the compound C=CCn1c(=O)c2cnc(Nc3ccc(N4CCN(C)CC4)cc3)nc2n1-c1cccc(C(C)(C)O)n1 + Cc1cccc(N(C)C(=O)C2C(O)CCN2c2nc(C)cc(C(F)(F)F)c2C#N)c1
Reply: 401

Task item: Please do the same for C=CCn1c(=O)c2cnc(Nc3ccc(N4CCN(C)CC4)cc3)nc2n1-c1cccc(C(C)(C)O)n1 + Nc1ccc(C#CCN(C(=O)Cc2ncc(C(F)(F)F)cc2C(F)(F)F)c2ccc(F)cc2)nn1 as well.
Reply: 644

----------
- System: 677734-321-R-J1-PDC complex spheroid viability
- method: Anticancer human tumor 677734-321-R-J1-PDC cell line growth inhibition [POLQ]; active = viability on the fitted dose curve at most 10% of control; inactive = the rest;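 note: spheroids exposed to compounds for one week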
- condition_label: second compound 0.1 µM; first compound 10 µM
Reply using exactly one outcome from active, inactive

Task item: Name the outcome recorded for CCCS(=O)(=O)Nc1ccc(F)c(C(=O)c2c[nH]c3ncc(-c4ccc(Cl)cc4)cc23)c1F + Cc1cccc(N(C)C(=O)C2C(O)CCN2c2nc(C)cc(C(F)(F)F)c2C#N)c1 in the assay.
Reply: active

Task item: Queued: O=C(c1cc(Cc2n[nH]c(=O)c3ccccc23)ccc1F)N1CCN(C(=O)C2CC2)CC1 + Cc1cccc(N(C)C(=O)C2C(O)CCN2c2nc(C)cc(C(F)(F)F)c2C#N)c1
Reply: inactive

Task item: Now consider COc1cc2cc(C(=O)CCC(=O)O)sc2cc1OC + COC1C(OC(N)=O)C(O)C(Oc2ccc3c(O)c(NC(=O)c4ccc(O)c(CC=C(C)C)c4)c(=O)oc3c2C)OC1(C)C .
Reply: inactive

Task item: Try the compound CCc1cc2c(N3CCc4c(cc(Cn5ccnc5)cc4-c4cn(C)nc4C(F)(F)F)C3=O)ccnc2c(OC)n1 + COC1C(OC(N)=O)C(O)C(Oc2ccc3c(O)c(NC(=O)c4ccc(O)c(CC=C(C)C)c4)c(=O)oc3c2C)OC1(C)C
Reply: inactive

Task item: Try this compound too: O=C(c1cc(Cc2n[nH]c(=O)c3ccccc23)ccc1F)N1CCN(C(=O)C2CC2)CC1 + COC1C(OC(N)=O)C(O)C(Oc2ccc3c(O)c(NC(=O)c4ccc(O)c(CC=C(C)C)c4)c(=O)oc3c2C)OC1(C)C
Reply: inactive

Task item: Again, but for CC1COCCN1c1cc(-c2ccnn2C)c2ccnc(-c3ccn[nH]3)c2n1 (stereo not given) + Cc1cccc(N(C)C(=O)C2C(O)CCN2c2nc(C)cc(C(F)(F)F)c2C#N)c1
Reply: inactive

Task item: // same read-out, input: COc1cccc2c1C(=O)c1c(O)c3c(c(O)c1C2=O)CC(O)(C(=O)CO)CC3OC1CC(N)C(O)C(C)O1 (stereo not given) + Cc1cccc(N(C)C(=O)C2C(O)CCN2c2nc(C)cc(C(F)(F)F)c2C#N)c1
Reply: active

Task item: Follow-up entry: CCc1cc2c(N3CCc4c(cc(Cn5ccnc5)cc4-c4cn(C)nc4C(F)(F)F)C3=O)ccnc2c(OC)n1 + Nc1ccc(C#CCN(C(=O)Cc2ncc(C(F)(F)F)cc2C(F)(F)F)c2ccc(F)cc2)nn1
Reply: inactive

Task item: Then what about the compound CCc1cc2c(N3CCc4c(cc(Cn5ccnc5)cc4-c4cn(C)nc4C(F)(F)F)C3=O)ccnc2c(OC)n1 + Cc1cccc(N(C)C(=O)C2C(O)CCN2c2nc(C)cc(C(F)(F)F)c2C#N)c1 ?
Reply: inactive

Task item: Note, next up: CC(C)n1c(=O)n(C)c2cnc3cc(F)c(-c4ccc(OCCCN5CCCCC5)nc4)cc3c21 + Cc1cccc(N(C)C(=O)C2C(O)CCN2c2nc(C)cc(C(F)(F)F)c2C#N)c1
Reply: inactive
